Numbers sourced from patent US20210261671A1.

Target: T1, human FLT3 protein (human, UniProt P36888 27-541, limits assumed)
T1 construct: protein coated in the screening ELISA; also called ELISA FLT3
Assay: colorimetric ELISA, periplasmic extract
A collection of binders and their measured ELISA FLT3 (absorbance)
READOUT_KIND: ELISA FLT3 (absorbance)

INSERT INTO measurements (binder, unit_annotation, experimental_value) VALUES
  ('FLL41 (VHH, llama anti-FLT3 variable domain; E. coli periplasmic extract) VHH: QVQLQESGGGLVQLGDSLMVSCAASGGTFSSYATGWFRQVPGREREFIAGISRSGGRTYYAESVKGRFTISRDNAKNTVYLQMNTLKPDDTAVYYCAAARYFTTSVVYTSGDDYDYWGQGTQVTVSS', 'absorbance', 0.8),
  ('FLL51 (VHH, llama anti-FLT3 variable domain; E. coli periplasmic extract) VHH: QVQLQESGGGLVQPGGSLRLSCAASGFDFSISYIDWYRQAPGNEREWVAQITRGGDSFYADSVKGRFAISRDNAKNTVYLQMNSLKPEDTAVYYCRILSYWGQGTQVTVSS', 'absorbance', 2.9),
  ('FLL160 (VHH, llama anti-FLT3 variable domain; E. coli periplasmic extract) VHH: QVQLQESGGGLVQAGDSLRLSCATSGRTFNLYRVGWFRQAPGKEREFVARITWSADITQYADSVKGRFTISRDNAKNTVYLQMNSLKPEDTAIYYCATTLRKSSGIYHVDDYDDWGQGTQVTVSS', 'absorbance', 0.7),
  ('FLL190 (VHH, llama anti-FLT3 variable domain; E. coli periplasmic extract) VHH: QVQLQESGGGLVQAGGSLTLSCTASGSTFSINHFSWYRQAPGKQRELVAFISSDGVSIDVESVKGRFTISGDNDKNTAYLQMNGLKPEDTAVYYCYYRGFWGQGTQVTVSS', 'absorbance', 4),
  ('FLL77 (VHH, llama anti-FLT3 variable domain; E. coli periplasmic extract) VHH: QVQLQESGGGLVQPGGSLRLSCAASGVTFSISYIDWYRQAPGNEREWVAQITRGGDSFYADSVKGRFAISRDNAKNTVYLQMNSLKPEDTAVYYCRILSYWGQGTQVTVSS', 'absorbance', 4),
  ('FLL129 (VHH, llama anti-FLT3 variable domain; E. coli periplasmic extract) VHH: QVQLQESGGGLVQAGGSLRLSCAASGVTFSASYIDWYRQAPGNEREWVAQITRGGDSFYADSVKGRFAISRDNAKNTVYLQMNSLKPEDTAVYYCRVLSYWGQGTQVTVSS', 'absorbance', 2.6),
  ('FLL40 (VHH, llama anti-FLT3 variable domain; E. coli periplasmic extract) VHH: QVQLQESGGGLVQAGGSLRLSCAVSGRTFSGFGTGWFRQAPGKEREFVAAISWSGGTTHYADSVKGRFTISRDNAKNTVSLVYLQMNSLKPDDTAVYYCAGQVARAYDSSWYSRGDYLGQGTQVTVSS', 'absorbance', 4),
  ('FLL74 (VHH, llama anti-FLT3 variable domain; E. coli periplasmic extract) VHH: QVQLQESGGGLVQAGGSLRLSCRFSGRTFSGFGTGWFRQAPGKEREFVAAISWAGGRTHYEDSVKGRFTISRDNAKNTVYLQMNSLKPEDTAVYYCAVQVSRAYDGIWYSGGDYWGQGTQVTVSS', 'absorbance', 3.9);
